TGT: Gal(b1-4)GlcNAc(b1-3)Gal(b1-4)GlcNAc(b1-3)Gal(b1-4)GlcNAc(b1-3)Gal(b1-4)GlcNAc(b1-2)Man(a1-3)[Gal(b1-4)GlcNAc(b1-3)Gal(b1-4)GlcNAc(b1-3)Gal(b1-4)GlcNAc(b1-3)Gal(b1-4)GlcNAc(b1-2)Man(a1-6)]Man(b1-4)GlcNAc(b1-4)[Fuc(a1-6)]GlcNAc
RUN DESCRIPTION: glycan array binding signal (z-score within array); higher = stronger binding
PROTOCOL CONDITIONS: glycan notation: IUPAC condensed, linker removed
The sample as a whole holds a higher share of the strongest signals than the screen did.
ASSAY METRIC: glycan array binding signal (z-score)
Simply state the number, no unit and no words.

Example binders with recorded glycan array binding signal (z-score):
- Epa9 (Candida glabrata), CAGL0A01386g (protein) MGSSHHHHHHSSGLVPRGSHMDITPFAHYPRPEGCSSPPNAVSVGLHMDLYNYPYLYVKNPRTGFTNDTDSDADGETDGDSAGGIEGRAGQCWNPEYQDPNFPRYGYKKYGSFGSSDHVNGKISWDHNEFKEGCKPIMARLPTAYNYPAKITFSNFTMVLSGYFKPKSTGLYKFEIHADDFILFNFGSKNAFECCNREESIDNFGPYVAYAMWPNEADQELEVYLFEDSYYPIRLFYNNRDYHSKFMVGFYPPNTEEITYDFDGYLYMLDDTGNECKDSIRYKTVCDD: 4.74
- SfaEH (Escherichia coli), Q1RDG5 (protein) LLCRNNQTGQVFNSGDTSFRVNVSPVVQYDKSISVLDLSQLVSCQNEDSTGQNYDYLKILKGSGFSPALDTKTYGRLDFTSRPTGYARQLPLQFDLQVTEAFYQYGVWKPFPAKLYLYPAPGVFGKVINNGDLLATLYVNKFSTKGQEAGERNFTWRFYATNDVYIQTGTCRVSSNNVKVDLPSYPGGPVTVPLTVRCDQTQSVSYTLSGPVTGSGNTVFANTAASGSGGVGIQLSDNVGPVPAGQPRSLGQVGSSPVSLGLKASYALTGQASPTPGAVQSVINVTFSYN: -0.08
- AFL6 (Aspergillus fumigatus), Q4WKJ1 (protein) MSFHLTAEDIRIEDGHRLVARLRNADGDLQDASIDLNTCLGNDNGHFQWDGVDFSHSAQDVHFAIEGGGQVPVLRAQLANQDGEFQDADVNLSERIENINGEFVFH: 2.99
- Pwp6 (Candida glabrata) (protein) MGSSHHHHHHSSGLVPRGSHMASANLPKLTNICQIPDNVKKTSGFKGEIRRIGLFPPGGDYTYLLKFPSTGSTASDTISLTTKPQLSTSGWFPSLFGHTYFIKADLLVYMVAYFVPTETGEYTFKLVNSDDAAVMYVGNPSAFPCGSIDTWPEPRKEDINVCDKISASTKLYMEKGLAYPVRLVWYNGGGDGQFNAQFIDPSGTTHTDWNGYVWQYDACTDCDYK: 3.31

Then this binder:
Record request: glycan array binding signal (z-score) value, item SBD-G4S3-SBD (protein) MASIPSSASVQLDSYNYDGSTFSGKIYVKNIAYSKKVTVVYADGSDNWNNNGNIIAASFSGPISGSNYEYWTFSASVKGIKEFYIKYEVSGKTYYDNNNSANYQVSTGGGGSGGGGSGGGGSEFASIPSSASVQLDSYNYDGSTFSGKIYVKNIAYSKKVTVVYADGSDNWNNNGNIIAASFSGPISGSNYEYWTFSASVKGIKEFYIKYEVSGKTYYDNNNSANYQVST 7.46

Taken from the supplement of paper PMC8728848.
